# Protocol Details: S. cerevisiae growth inhibition in permissive medium (OD615), pilot counter-assay for S. cerevisiae lifespan shortening project, permissive growth control (AID 705)
# Test Conditions: OD615, 24 h, at 10 µM, hits give high values
Reported Metric: growth inhibition (%)
Number in %, nothing else.

input: What value of measured growth inhibition is listed for CCSC1=C(C#N)C(c2ccc(F)cc2)CC(=O)N1 (stereo not drawn) ?
output: 5.18

input: What value of measured growth inhibition is listed for Cc1ccc(C2=[N+]([O-])C3(CCCCC/C3=N\O)N(O)C2(C)C)o1 (stereo not drawn) ?
output: -1.35

input: What value of measured growth inhibition is listed for Cc1ccc(S(=O)(=O)NCc2nc3ccccc3[nH]2)cc1 ?
output: -4.75

input: What value of measured growth inhibition is listed for COC(=O)COc1cccc(NC(=O)COc2ccccc2)c1 ?
output: -12.5

input: What value of measured growth inhibition is listed for Cn1c(C(=O)N2CCN(c3ccc(F)cc3)CC2)cc2c(=O)n(C)c3ccccc3c21 ?
output: -6.62

input: What value of measured growth inhibition is listed for Cc1noc(C)c1S(=O)(=O)N1CCC(C(=O)N2CCC(N3CCCCC3)CC2)CC1 ?
output: -7.79

input: What value of measured growth inhibition is listed for CCCc1cc(=O)[nH]c(SCC(=O)NC2CCCCC2)n1 ?
output: 2.37

input: What value of measured growth inhibition is listed for Cc1noc(NS(=O)(=O)c2ccc(NC(=O)CSc3ncccn3)cc2)c1C ?
output: -3.47

----------
# Protocol Details: HUVEC growth inhibition – cell-based, human, primary screen (AID 575);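 note: 100% = median of untreated cell wells with 0.1% DMSO on each plate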
# Test Conditions: HUVEC proliferation, CellTiter-Glo luminescence, 72 h; at 10 µM; hits give low values
Active and inactive are the calls of the source.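 The calls were made as follows: active = viability at or below 30% in both replicate assays; inconclusive = viability at or below 30% in just one of the two assays; inactive = the rest.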
This section presents compounds with their documented viability values.

Example results:
C=CCOc1ccc(/C(CC)=N/O)c(OC)c1	70.4% (inactive)
CCOC(=O)C1CCCN(C(=O)c2cn(C)c(=O)c3cc(OC)c(OC)cc23)C1 (stereo not drawn)	94.2% (inactive)
CCOCCCNC(=O)C(c1ccccc1)N(Cc1ccc2c(c1)OCO2)C(=O)CNC(C)=O (stereo not drawn)	97.7% (inactive)
CCCCOCCCNC(=O)COc1ccccc1	102% (inactive)
COc1ccc(C2C(C(C)=O)=C(C)N=c3s/c(=C/c4ccc5c(c4)OCO5)c(=O)n32)cc1 (stereo not drawn)	91.7% (inactive)
Cc1cc2cc(CCNC(=O)CC(C)C)c(=O)[nH]c2cc1C	93.3% (inactive)
COC(=O)CSc1nnc(-c2ccncc2)o1	105% (inactive)
N#CCCN1CCN(S(=O)(=O)c2ccc(S(=O)(=O)NC3CCCCC3)cc2)CC1	98.9% (inactive)
CCOC(=O)N1CCC(NC(=O)c2cc3c(=O)n(C)c4ccccc4c3n2C)CC1	71.3% (inactive)
Cc1ccc2cccc(SCC(=O)N3CCOCC3)c2n1	61% (inactive)

input: What value of measured viability is listed for O=C(c1ccc(Br)cc1)N1CCN(S(=O)(=O)c2ccccc2)CC1 ?
output: 103% (inactive)

input: What value of measured viability is listed for COC(=O)c1ccsc1NC(=O)CN1C(=O)CCC1=O ?
output: 83.1% (inactive)

input: What value of measured viability is listed for CCCCC(NC(C)=O)c1nc2ccccc2n1CCC (stereo not drawn) ?
output: 93.9% (inactive)

input: What value of measured viability is listed for Cc1onc(-c2ccccc2Cl)c1C(=O)Nc1cnn(Cc2ccccc2)c1 ?
output: 73.6% (inactive)

input: What value of measured viability is listed for COc1ccccc1-n1c(=O)[nH]c2c(C(N)=O)nc(-c3cccnc3)nc21 ?
output: 73.7% (inactive)

input: What value of measured viability is listed for O=C(O)C1CC(=O)N(CCOc2ccccc2)C1 (stereo not drawn) ?
output: 111% (inactive)
